Kindly supply the reported IC50 values for the records listed here.
Test system: MCF-7
experiment summary: MTT cancer cell proliferation assay, MCF-7
Type: cell-based, human
run parameters: Homo sapiens, MCF7, read-out: IC50 (μM) MCF-7
Numbers only, in µM.

Some solved cases for reference:
Q: Can you look up the measured IC50 of C=C1C(=O)[C@@]23[C@@H]4OC(C)(C)OC25OC[C@]2(C(=O)/C(=C\N(C)C)CC(C)(C)[C@H]2[C@@H]5O)[C@@H]3CC[C@@H]14 for me?
Result: 9.07

Q: And the next one, C=C1C(=O)[C@]23[C@H](O)[C@H]1CC[C@H]2[C@]12C=CC(=O)C(C)(C)[C@H]1[C@H](O)[C@@]3(O)OC2 ?
Result: 0.71

Q: And the next one, C=C1C(=O)[C@@]23C(CC[C@H]1[C@H]2O)[C@@]12CO[C@]3(O)[C@@H](O)C1C(C)(C)Cc1sc(C)nc12 (stereo partly drawn) ?
Result: 2.63

Q: And the next one, C=C1C(=O)[C@]23[C@H](O)[C@H]1CC[C@H]2[C@]12C=CCC(C)(C)[C@H]1[C@H](O)[C@@]3(O)OC2 ?
Result: 0.79

Consider now this further compound.
Q: Can you look up the measured IC50 of C=C1C(=O)[C@]23[C@H](O)[C@H]1CC[C@H]2[C@@]12COC3(O)[C@@H](O)[C@@H]1C(C)(C)CC1=C2O[C@]2(CC1)CC(C)(C)[C@H]1[C@H](O)[C@]3(O)OC[C@]1(C2=O)[C@@H]1CC[C@H]2C(=C)C(=O)[C@]13[C@@H]2O for me?
Result: 4.82

From: patent US9725460B2
